- assay.overview: Solubility assessment in FaSSIF (equilibrium solubility)
- Type: physicochemical
- experimental.context: thermodynamic from solid, 4 hr at room temperature, LC-MS
endpoint.name: solubility at 4 h (µg/mL)
Please state the figure in µg/mL; there is no need to write the unit.

Sure, the documented solubility at 4 h for `Cc1cncc2[nH]c(=O)n([C@H](C(=O)Nc3ccnc(F)c3)C(C)C)c(=O)c12` is 426
